test system: Saccharomyces cerevisiae; test: protein stability index of tFT-peptide fusion (C-terminal peptide) (PSI (0-1 scale)); higher = more stable (slower turnover); settings: genetic background: wild type; temperature: 30 C
Measured protein stability index by item
// no unit, no text: just the number

In the examples that follow, each entry is paired with its recorded protein stability index.
PPPRLNPLPPAC ... 0.731
GGAGGVVGGGGG ... 0.616
VLFPPGFPPGLL ... 0.817

// protein stability index lookup, sequence = CVTLPPHPLPPP , result: 0.662

Field protein stability index (entry GGGGLFGCWVCG ) reads 0.654

Note to self: protein stability index recorded for CLQRPVSAGMVT was 0.676

Lab note: PLPWIFHCRAPL gave protein stability index of 0.719

The recorded protein stability index for entry VLVEWQTCRTRK equals 0.656

The recorded protein stability index for PPPSRRLTLRLA is 0.292

Record summary for RNRTNVETKTGS : reported protein stability index = 0.697

====

List of protein stability index values.
test system: Saccharomyces cerevisiae; assay: protein stability index of tFT-peptide fusion (C-terminal peptide) (PSI (0-1 scale)); higher = more stable (slower turnover); settings: genetic background: wild type; temperature: 30 C

Reported protein stability index ( GCGSVVVGVGGG ) = 0.652

# sequence PRDSRPLPAYSL ; its protein stability index = 0.591

The recorded protein stability index for YDCPLPPSGLTI is 0.688

Given item SGFRALWGLFAL , the value recorded as its protein stability index is 0.683

In plain terms, PPSPPPPPRPPP has a documented protein stability index of 0.583

For RHILFLLLTPHS the sequence record lists protein stability index as 0.577

Entry RASRSPIARPGT , protein stability index reported as 0.643

Looking up EWLRYNKDKRKI , I found its protein stability index recorded as 0.774

For reference, reported protein stability index for TLPSPPSPSPRP stands at 0.679

====

system: Saccharomyces cerevisiae; assay: protein stability index of tFT-peptide fusion (C-terminal peptide) (PSI (0-1 scale)); higher = more stable (slower turnover); conditions: genetic background: cdc53-1; temperature: 37 C
quantity.kind: protein stability index
Keep it simple and answer with nothing but the number.

Worked set:
WFSVIMLCYILP ... 0.22
GTWCLAMARFCA ... 0.755
WGVVMVCVVFGL ... 0.247
VYCQRFMLLFTP ... 0.535
ESCWVSRVGVCR ... 0.731

Read the next record carefully.
Item: LASWVVFIWFLW | protein stability index: 0.348

====

test system: Saccharomyces cerevisiae; test: protein stability index of tFT-peptide fusion in wild type (PSI (0-1 scale)); higher = more stable (slower turnover); details: genetic background: wild type
Recorded protein stability index by entry
Number, no unit, nothing else.

Here are 3 sequences together with their reported answers.
TVVYLSCVACIN ... 0.0176
RSLRVLLPLYFRG ... 0.324
CLVSLDILLFFR ... 0.265

In plain terms, GLYMCSVNCWFR has a documented protein stability index of 0.487

Short answer for GLYMCSVGCVFR : protein stability index was 0.561

Item: FSMRWTFRYWVP | protein stability index: 0.541

So, PSCAASFWRVVG ? Its protein stability index was 0.154

// protein stability index value for VRGMVGGWRLVG : 0.161

Reported protein stability index for LKILRGKMNHQN was 0.297

Value of protein stability index reported for the sequence RVTWLDAIYFRI is 0.323

Kindly note the recorded protein stability index for ARYRVGLWRGAS , which is 0.567

Input KKHKKGQKHKIN . Output protein stability index: 0.228
